Test system: MALME-3M melanoma
Assay: NCI tumour cell line growth inhibition, 48 h
Quantity Kind: TGI

> print(dat)
                                   compound  endpoint.result
1          O=CC1=CCCN(CCc2c[nH]c3ccccc23)C1           122 µM
2  C[C@@H](c1ccccc1)N1C[C@@H](c2ccc3c(c2)OCO3)[C@@H]2C(=O)CCC[C@@H]21          87.5 µM
3  CON1C(=O)C2(CCCCC2)C(=O)C12C=CC(C)CC2 (stereo not drawn)         > 100 µM
4  CC(C)(C)OC(=O)NC(Cc1ccccc1)C(=S)N1CCCC1 (stereo not drawn)         > 100 µM
5                           Oc1cccc2cccnc12         > 100 µM

Data request, read-out TGI, for C=CCC1(CN(C)C)CC/C(=C\c2cc(OC)c(OC)c(OC)c2)C1=O (stereo not drawn)
> 100 µM

Please give the result for `CC1(C)C(CBr)=[N+]([O-])C(C)(C)N1O` too.
7.06 µM

Please give the result for `COc1ccc(Cc2ccc3[nH]c(=O)cc(C)c3c2)cc1S(=O)(=O)O` too.
> 100 µM

* * *

System: SK-MEL-5 melanoma
Test: NCI tumour cell line growth inhibition, 48 h
Quantity Kind: TGI

Answered cases to consult:
> print(dat)
                                   compound  quantity.kind  endpoint.result
1  Cn1c2ccccc2c2c3c(c4c5ccccc5n(C)c4c21)C(=O)N(Cc1ccccc1)C3=O            TGI         > 100 µM
2  C/C1=C\[C@@H](C)C[C@@H](C)OC(=O)[C@@H](C)NC(=O)[C@H](Cc2ccc(O)c(Br)c2)N(C)C(=O)CNC(=O)[C@H](C)C1            TGI        > 52.8 µM
3  NC1=C(O)/C(=N/NS(=O)(=O)c2ccccc2)C(c2ccc3c(c2)OCO3)O1 (stereo not given)            TGI         > 100 µM

Data request, read-out TGI, for `Clc1ccc(-c2nnc(-c3nn(-c4ccccc4)c4nc5ccccc5nc34)o2)cc1`
32.3 µM

Please give the result for `COc1ccc(Cc2ccc3[nH]c(=O)cc(C)c3c2)cc1S(=O)(=O)O` too.
> 100 µM

Please give the result for `C[C@]1(c2nc3c(C(N)=O)cccc3[nH]2)CCCN1` too.
> 100 µM

Please give the result for OCC1CC2C=CCC(C2)C1 (stereo not given) too.
> 100 µM

Please give the result for `OCC#Cc1ccccc1C#Cc1ccc(C#Cc2ccccc2C#CCO)cc1` too.
59.3 µM

Please give the result for `CC(C)(C)OC(=O)NCC(c1c[nH]c2cc(Br)ccc12)c1c[nH]c2cc(Br)ccc12` too.
34.2 µM

* * *

Documented GI50 across a set of compounds
Test system: MALME-3M melanoma
Assay: NCI tumour cell line growth inhibition, 48 h

Answered cases to consult:
> print(dat)
                               smiles.entry  quantity.kind  endpoint.result
1  COc1ccc2c(c1)/C(=C\c1c(-c3ccccc3)nc3sccn13)C(=O)N2           GI50          39.7 µM
2  C[C@]12CC[C@@H]3c4ccc(O)cc4CC[C@H]3[C@@H]1CC(Cc1ccccc1)(Cc1ccccc1)C2=O           GI50          23.5 µM
3  C#Cc1cccc(Nc2nc(C)nc3cc(NC(=O)CCl)ccc23)c1           GI50         0.465 µM
4  COc1cc(-c2n/c(=C\c3c(O)[nH]c4ccccc34)cc3c2=Nc2ccccc2-3)ccc1F           GI50          4.38 µM
5           NC(=O)c1ccc(I)c([N+](=O)[O-])c1           GI50            41 µM
6  OCC#Cc1ccccc1C#Cc1ccc(C#Cc2ccccc2C#CCO)cc1           GI50          98.9 µM

Next:
Data request, read-out GI50, for `Cc1cc(C)c([I+]c2c(C)cc(C)cc2C)c(C)c1`
0.37 µM

* * *

Tested on: UACC-257 melanoma
Assay: NCI tumour cell line growth inhibition, 48 h
Documented TGI across a set of molecules

Answered cases to consult:
> print(dat)
                                   molecule  endpoint.result
1  Cc1c(C)c(S(=O)(=O)N(CCCN)OCCCN)c(C)c2c1OC(C)(C)CC2          27.3 µM
2           CCCNC(=O)Cn1c2c(c3ccccc31)CCCC2         > 100 µM
3  NC1=C(O)/C(=N/NS(=O)(=O)c2ccccc2)C(c2ccc3c(c2)OCO3)O1 (stereo not drawn)         > 100 µM
4  CON1C(=O)C2(CCCCC2)C(=O)C12C=CC(C)CC2 (stereo not drawn)         > 100 µM
5  CC(=O)O[C@H]1CC[C@@]2(C)C(=CC[C@H]3C(CC#N)[C@@](C)(C#N)CCC32)C1 (stereo partly drawn)         > 100 µM

Data request, read-out TGI, for `O=c1cccccc1O`
> 100 µM

Please give the result for `CCCC(=O)Oc1c2ccsc2c(OC(=O)CCC)c2ccsc12` too.
1.82 µM

Please give the result for `COc1ccc2[nH]c3c(c2c1)CCc1c(OC)cccc1-3` too.
> 100 µM

* * *

Test system: SK-MEL-5 melanoma
Assay: NCI tumour cell line growth inhibition, 48 h; in the data active = GI50 below about 0.43 µM; inactive = the rest
Use one of these outcomes when replying: label 1 for active, label 0 for inactive

> print(dat)
                                   molecule    group
1            NC(CCl)=NCC12CC3CC(CC(C3)C1)C2  label 0
2  COc1cc(/C=C/C(=O)c2ccccc2O)ccc1OCCCOc1cc2c(cc1OC)C(=O)N1CCC[C@H]1C=N2  label 1

Given `COc1ccc(-c2oc3ncnc(N)c3c2-c2ccc(NC(=O)Nc3cc(C(F)(F)F)ccc3F)cc2)cc1` , state the outcome it received in this test.
label 0

Please give the result for CCC(CO)Nc1nc(NCc2ccccc2)c2n[nH]c(C(C)C)c2n1 (centres undefined) too.
label 0

Please give the result for `O=C(N/N=C/c1ccc([N+](=O)[O-])cc1)c1ccccc1Nc1ccnc(C(F)(F)F)c1` too.
label 0

Please give the result for `COc1ccc(-c2c(NC(=O)Nc3ccc(Cl)c(C(F)(F)F)c3)cnn2-c2ccc(S(N)(=O)=O)cc2)cc1` too.
label 0

Please give the result for `COc1ccc2c(c1)C(=O)/C(=C/c1ccc(O)cc1)O2` too.
label 0

Please give the result for `FC(F)(F)c1cccc(Oc2ccc(Nc3ncnc4ccc(OCCCN5CCOCC5)cc34)cc2Cl)c1` too.
label 0

Please give the result for `CCCCCCCC(=O)Nc1nc2[nH]c(CN3CCN(Cc4cccc(I)c4)CC3)c(CN3CCN(Cc4cccc(I)c4)CC3)c2c(=O)[nH]1` too.
label 0

* * *

Test system: SF-268 CNS
Assay: NCI tumour cell line growth inhibition, 48 h
Documented GI50 across a set of compounds

Answered cases to consult:
Compound	GI50
COc1ccc(-c2oc3ncnc(N)c3c2-c2ccc(NC(=O)Nc3cc(C(F)(F)F)ccc3F)cc2)cc1	1.03 µM
COc1ccc(OC)c(-c2cc(-c3ccc(Cl)cc3)nn2-c2ccccc2)c1	18.2 µM
O=C(N/N=C/c1ccc([N+](=O)[O-])cc1)c1ccccc1Nc1ccnc(C(F)(F)F)c1	10.5 µM

Data request, read-out GI50, for `Cc1cccc2c(=O)c3c(sc12)c(NCCCN)nc1ccccc13`
1.53 µM

Please give the result for `Oc1c(CN2CCCCC2)ccc2cccnc12` too.
6.07 µM

Please give the result for `Cc1cc2[nH]c(=O)c3c4ncccc4cn3c2cc1C` too.
3.44 µM

Please give the result for C[N+]1(CCNP(=S)(NCC[N+]2(C)Cc3c(ccc4c3OCO4)C3C2c2cc4c(cc2C[C@@H]3O)OCO4)NCC[N+]2(C)Cc3c(ccc4c3OCO4)C3C2c2cc4c(cc2C[C@@H]3O)OCO4)Cc2c(ccc3c2OCO3)C2C1c1cc3c(cc1C[C@H]2O)OCO3 (stereo not given in full) too.
6.67 µM

Please give the result for `COc1ccc2cc(C(=O)N3CCC([C@@H](C)C(=O)NCc4ccc5c(c4)OCO5)CC3)[nH]c2c1` too.
77.3 µM

Please give the result for `COC(=O)[C@@H](C)C[C@H](Cc1ccc(F)cc1)NC(=O)c1csc([C@@H](C[C@H](C(C)C)N(C)C(=O)[C@@H](NC(=O)[C@H]2CCCCN2C)C2CC2)OC(C)=O)n1` too.
1.16 µM

Please give the result for `COc1cc(/C=C2\C(=O)Nc3ccc(Cl)cc32)cc(OC)c1OC` too.
8.99 µM
